Origin of the recorded values: ChEMBL document CHEMBL1201862

tested on: OVCAR-8; assay: NCI tumour cell line growth inhibition, 48 h
Active and inactive are the calls of the source. Rule as the data show it: active = GI50 up to about 1.1 µM and inactive = higher.
experimental.endpoint: GI50

Observe how each entry below is paired with its result.
Incoming: Return value of GI50 for input COC(=O)C1=NC(=S)NC(c2ccccc2)C1c1nc2ccccc2o1 (stereo unspecified) , no commentary.
Outgoing: > 50 µM (inactive)

Incoming: Return value of GI50 for input Fc1ccccc1CN1COc2c(cc(Cl)c3cccnc23)C1 , no commentary.
Outgoing: 1.53 µM (inactive)

Incoming: Return value of GI50 for input COc1ccc([C@H]2CC(=O)NCCCCN2)cc1 , no commentary.
Outgoing: > 100 µM (inactive)

Incoming: Return value of GI50 for input Cc1ccc(O)c(C(c2ccc([N+](=O)[O-])cc2)c2cc(C)ccc2O)c1 , no commentary.
Outgoing: 11.7 µM (inactive)

Incoming: Return value of GI50 for input CC1(C)O/C(=C\c2ccccc2)C(=O)/C(=C/c2ccccc2)O1 , no commentary.
Outgoing: 45.2 µM (inactive)

Incoming: Return value of GI50 for input CC1(CO)COS(=O)OC1 (stereo unspecified) , no commentary.
Outgoing: > 100 µM (inactive)

Incoming: Return value of GI50 for input COC(=O)C1=C(C)NC(C)=C([N+](=O)[O-])C1c1cccc(NO)c1 (stereo unspecified) , no commentary.
Outgoing: 5.81 µM (inactive)

Incoming: Return value of GI50 for input CCCCCCC1NN(C(C)=O)C(CCCCCC)NN1C(C)=O (stereo unspecified) , no commentary.
Outgoing: > 100 µM (inactive)

Incoming: Return value of GI50 for input COc1ccc2c(c1)[n+]([O-])c(C(C)=O)c(C)[n+]2[O-] , no commentary.
Outgoing: > 100 µM (inactive)

Incoming: Return value of GI50 for input Cn1nc(-c2ccccc2)c(C(=O)/C=C/c2ccccc2)c(N2CCCC2)c1=O , no commentary.
Outgoing: 16.9 µM (inactive)

Could you now look at the following compound, please?
Incoming: Return value of GI50 for input O=C(O)c1nc2cc(Cl)ccc2[nH]c1=O , no commentary.
Outgoing: > 100 µM (inactive)

---

Reported GI50 values for a set of molecules
test system: MOLT-4; test: NCI tumour cell line growth inhibition, 48 h
The source made the active and inactive calls. No stated cut-off is given here; in the data, active = GI50 up to about 1.1 µM and inactive = higher.

Incoming: Return value of GI50 for input CC(=O)OCCn1cnc2nc(Nc3ccccc3)nc(Cl)c21 , no commentary.
Outgoing: 54.2 µM (inactive)

Incoming: Return value of GI50 for input N#C/C(=C\c1ccc2ccccc2c1)c1ccccc1 , no commentary.
Outgoing: 39.5 µM (inactive)

Incoming: Return value of GI50 for input N#CNC(=N)Nc1ccc(Cl)cc1 , no commentary.
Outgoing: 36.4 µM (inactive)

Incoming: Return value of GI50 for input COC(=O)C1=NC(=S)NC(c2ccccc2)C1c1nc2ccccc2o1 (configuration not stated) , no commentary.
Outgoing: > 50 µM (inactive)

Incoming: Return value of GI50 for input COc1nc(NC2OC(COC(C)=O)C(OC(C)=O)C(OC(C)=O)C2OC(C)=O)c(-c2csc(N)n2)c(=O)n1C (configuration not stated) , no commentary.
Outgoing: > 100 µM (inactive)

Incoming: Return value of GI50 for input CN(C)N1C(=O)C(=O)N(c2cccc3ccccc23)C1=O , no commentary.
Outgoing: > 10 µM (inactive)

Incoming: Return value of GI50 for input CN(c1ccc(C(=O)c2ccc(N(C)S(C)(=O)=O)cc2)cc1)S(C)(=O)=O , no commentary.
Outgoing: 47 µM (inactive)

Incoming: Return value of GI50 for input CNC(C)Cc1ccccc1O (configuration not stated) , no commentary.
Outgoing: > 100 µM (inactive)

Incoming: Return value of GI50 for input CC(=O)c1[nH]c(Nc2ccc(C)cc2)c(C(=S)Nc2ccccc2)c1N , no commentary.
Outgoing: 30.1 µM (inactive)

Incoming: Return value of GI50 for input CSC1(SC)N2Cc3ccccc3N=C2C1(c1ccccc1)c1ccccc1 , no commentary.
Outgoing: 2.77 µM (inactive)

More entries:
Incoming: Return value of GI50 for input CC(C)CC(NC(=O)OC(C)(C)C)C(=O)Nc1ccc(Nc2nc(F)nc(-c3c4ccccc4cn3C)n2)cc1 (configuration not stated) , no commentary.
Outgoing: 59.7 µM (inactive)

Incoming: Return value of GI50 for input CCOP(=O)(OCC)/C(C#N)=C\c1cccc2ccccc12 , no commentary.
Outgoing: 35.4 µM (inactive)

Incoming: Return value of GI50 for input COc1ccc([C@H]2CC(=O)NCCCCN2)cc1 , no commentary.
Outgoing: > 100 µM (inactive)

Incoming: Return value of GI50 for input OC1(CCc2ccccc2)COC(C(F)(F)F)(C(F)(F)F)C1 (configuration not stated) , no commentary.
Outgoing: > 100 µM (inactive)

Incoming: Return value of GI50 for input COC(=O)C(C)(C)[C@@H]1OC(=O)N(S(=O)(=O)c2c(C)cc(C)cc2C)[C@H]1C(C)C , no commentary.
Outgoing: 40 µM (inactive)

Incoming: Return value of GI50 for input O=C(O)C(=C\c1ccc2c(c1)OCO2)/C(=C/c1ccc2c(c1)OCO2)C(=O)O , no commentary.
Outgoing: > 100 µM (inactive)

Incoming: Return value of GI50 for input c1ccc2c(c1)nnn2CNc1ccc(N2CCCCC2)cc1 , no commentary.
Outgoing: > 100 µM (inactive)

Incoming: Return value of GI50 for input COc1ccc(C2CC(c3c(O)ccc4ccccc34)=NN2c2ccc([N+](=O)[O-])cc2[N+](=O)[O-])cc1OC (configuration not stated) , no commentary.
Outgoing: 4.78 µM (inactive)

Incoming: Return value of GI50 for input O=C1Nc2c(Cl)cc(Cl)cc2/C1=N/NC(=O)c1ccccc1O , no commentary.
Outgoing: 10 µM (inactive)

Incoming: Return value of GI50 for input COc1ccc(Nc2nc(N)c(C(=O)c3c[nH]c4ccccc34)s2)cc1 , no commentary.
Outgoing: 0.478 µM (active)

Incoming: Return value of GI50 for input CC1(C)O/C(=C\c2ccccc2)C(=O)/C(=C/c2ccccc2)O1 , no commentary.
Outgoing: 14.7 µM (inactive)

Incoming: Return value of GI50 for input CN1CCN(C(=O)CCC(=O)Nc2cc3c(c4ccccc24)-c2ccc4ccccc4c2C3)CC1 , no commentary.
Outgoing: 1.77 µM (inactive)

---

tested on: ACHN; experiment: NCI tumour cell line growth inhibition, 48 h
Active and inactive are the calls of the source. Rule as the data show it: active = GI50 up to about 1.1 µM and inactive = higher.
Reported GI50 values for a set of compounds

Incoming: Return value of GI50 for input CC1=C(C)SC(=C2Sc3[n-]c(=O)[nH]c(=O)c3S2)S1.CCCC[N+](CCCC)(CCCC)CCCC , no commentary.
Outgoing: > 100 µM (inactive)

Incoming: Return value of GI50 for input COC(=O)c1cc2c3c(ccc2[nH]1)N(C(=O)c1cc2c4c(ccc2[nH]1)N(C(=O)c1cc2c5c(ccc2[nH]1)N(C(N)=O)CC5)CC4)CC3 , no commentary.
Outgoing: 3.13 µM (inactive)

Incoming: Return value of GI50 for input Cc1c2cc[n+](C)cc2c(C)c2c1[nH]c1ccccc12 , no commentary.
Outgoing: 12.8 µM (inactive)

Incoming: Return value of GI50 for input Oc1ccc(-c2n[nH]c(S)n2)cc1 , no commentary.
Outgoing: > 100 µM (inactive)

More entries:
Incoming: Return value of GI50 for input COC(=O)CC1(O)C(/C=C/c2ccccc2)C(C(=O)OC)C(=O)C(C(=O)OC)C1C(=O)OC (stereo not given) , no commentary.
Outgoing: > 100 µM (inactive)

Incoming: Return value of GI50 for input CC(C)N(C(=O)C1(O)c2ccccc2C=Cc2ccccc21)C(C)C , no commentary.
Outgoing: 16.1 µM (inactive)

Incoming: Return value of GI50 for input Cc1cc2ccccc2c[n+]1CC(O)C[n+]1cc2ccccc2cc1C , no commentary.
Outgoing: > 100 µM (inactive)

Incoming: Return value of GI50 for input Clc1ccc(OC2CCO2)cc1Cl (stereo not given) , no commentary.
Outgoing: 49.7 µM (inactive)

Incoming: Return value of GI50 for input CN(C)CC1CCC/C(=C\c2ccccc2)C1=O (stereo not given) , no commentary.
Outgoing: 3.5 µM (inactive)

---

Reported GI50 values for a set of molecules
test system: UACC-62; assay: NCI tumour cell line growth inhibition, 48 h
The source made the active and inactive calls. Rule as the data show it: active = GI50 up to about 1.1 µM and inactive = higher.

Observe how each entry below is paired with its result.
Incoming: Return value of GI50 for input CC(C)(C)OC(=O)NCCNC(=O)OCc1ccccc1 , no commentary.
Outgoing: > 100 µM (inactive)

Incoming: Return value of GI50 for input Nn1c(S)nnc1COc1cccc(OCc2nnc(S)n2N)c1 , no commentary.
Outgoing: 83.2 µM (inactive)

Incoming: Return value of GI50 for input CC1C(c2cc(C(C)(C)C)c(O)c(C(C)(C)C)c2)c2cc3c(cc2OC1N1CCOCC1)OCO3 (configuration not stated) , no commentary.
Outgoing: 26.4 µM (inactive)

Incoming: Return value of GI50 for input CC(=O)OCC1=CC2CCC3C(C)(CCC[C@]3(C)COC(C)=O)C23CC[C@H]1C3 (some centres not stated) , no commentary.
Outgoing: 36.1 µM (inactive)

Incoming: Return value of GI50 for input Oc1c2ccccc2c2c3c(cccc13)N=N2 [SP-600125] , no commentary.
Outgoing: 14.6 µM (inactive)

Incoming: Return value of GI50 for input Cc1nn(C(=O)Cc2ccccc2)c2c1C(c1ccc(O)cc1O)SC(=N)N2 (configuration not stated) , no commentary.
Outgoing: > 100 µM (inactive)

More entries:
Incoming: Return value of GI50 for input O=C(NCCCNCCCCNCCCNC(=O)C(F)(F)F)C(F)(F)F , no commentary.
Outgoing: > 100 µM (inactive)

Incoming: Return value of GI50 for input O=c1c2c(oc3ccccc13)-c1ccccc1OC2 , no commentary.
Outgoing: > 100 µM (inactive)

Incoming: Return value of GI50 for input O=C1Oc2ccccc2C(=O)/C1=C\NC(=S)c1ccncc1 , no commentary.
Outgoing: > 100 µM (inactive)

Incoming: Return value of GI50 for input CN1CCN(C(=O)CCC(=O)Nc2cc3c(c4ccccc24)-c2ccc4ccccc4c2C3)CC1 , no commentary.
Outgoing: 1.7 µM (inactive)

Incoming: Return value of GI50 for input CCCCCCCCCc1c(O)c(O)c(CCCCCCCCC)c(CCCCCCCCC)c1CCCCCCCCC , no commentary.
Outgoing: > 100 µM (inactive)

Incoming: Return value of GI50 for input CC1(C)OC2OC(COC(=O)C(c3ccccc3)c3ccccc3)C3OC(C)(C)OC3C2O1 (configuration not stated) , no commentary.
Outgoing: 9.27 µM (inactive)

Incoming: Return value of GI50 for input CSC1=N/C(=C\c2c[nH]c3ccccc23)C(=O)N1 , no commentary.
Outgoing: 92.9 µM (inactive)

Incoming: Return value of GI50 for input CC1(CO)OC(n2cnc3c(N)ncnc32)C(O)C1O (configuration not stated) , no commentary.
Outgoing: > 100 µM (inactive)

Incoming: Return value of GI50 for input CC(C)(C)c1cc(/C=C2/NC(=O)NC2=O)cc(C(C)(C)C)c1O , no commentary.
Outgoing: 16.5 µM (inactive)
